Origin of measurements: ChEMBL document CHEMBL3351921

assay: Apparent permeability across apical to basolateral side of human Caco2 cells at pH 7.4; type: ADME, cell-based; details: Caco-2, pH 7.4
Measured Papp A→B values are reported for all entries that follow.
Report the figure in ×10⁻⁶ cm/s without appending any unit label.

Cc1c(Cc2ccccc2Cc2ccccc2)c2c(n1CC(=O)O)CCNC2=O = 0.2

Qu. Using known records, supply Papp A→B for "Cc1c(Cc2ccccc2S(=O)(=O)c2ccccc2)c2c(=O)n(C)ccc2n1CC(=O)O"
Ans. 0.1

Qu. Hello, please tell me recorded Papp A→B for this one: "Cc1c(Cc2ccccc2S(=O)(=O)c2ccccc2)c2c(=O)[nH]ccc2n1CC(=O)O"
Ans. 0.1

Qu. Recall and state the measured Papp A→B for "Cc1c(Cc2ccccc2S(=O)(=O)c2ccccc2)c2c(n1CC(=O)O)CCNC2=O" .
Ans. 0.01
